Data origin, for the record: the Human Domainome abundance scans (Beltran et al. 2025)

B1: Tesmin, residues 368 to 403; numbered along this chain, Q9Y4I5 (parent)
chain: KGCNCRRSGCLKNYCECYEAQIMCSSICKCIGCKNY

variants of: B1; test: abundance fitness (aPCA) (normalised: wild type 0, dead -1); higher = more abundant; growth selection in yeast, the domain comes from the species named; details: Homo sapiens
Binary call on abundance fitness: y from -0.06 upward, n beneath that.

Worked examples follow.
# VARIANT NOTATION, CATEGORY LABEL
measured = [
    ("N4A", "n"),
    ("C10T", "n"),
    ("L11W", "n"),
    ("S8V", "n"),
]

[Q] Could you please find out whether `G32T` has abundance fitness that meets -0.06 or exceeds it?
[A] n

[Q] Is the recorded value of abundance fitness equal to or greater than -0.06 for this variant? `N13S`
[A] n

[Q] Form field: abundance fitness at least -0.06? Entry: `Y36A`
[A] y
